tested on: HT 29 (Colon adenocarcinoma); test: In vitro cytotoxicity, microculture tetrazolium (MTT) assay, HT29; type: cell-based, Human; details: Homo sapiens, HT-29, 48 h with compound, further 48 h, Table 1
Counter-ions that a name gives are not always drawn.
measurement.name: log10 of IC50 (log10 of the value in nM)
Log scale reminder: IC50 in nM, then log10 taken.

Here are 4 compounds together with their reported answers.
>>> reported_measurement("CC(=O)[C@@H]1CC2=C(C(=O)c3ccc(O)cc3C2=O)[C@@H](O[C@H]2C[C@H](NC(=O)C(F)(F)F)[C@H](O)[C@H](C)O2)O1")
2.73
>>> reported_measurement("COC[C@@H]1CC2=C(C(=O)c3ccccc3C2=O)[C@@H](O[C@H]2C[C@H](NC(=O)C(F)(F)F)[C@H](O)[C@H](C)O2)O1")
3.85
>>> reported_measurement("CC(=O)O[C@@H]1[C@H](C)O[C@@H](O[C@H]2O[C@H](C(C)=O)CC3=C2C(=O)c2ccccc2C3=O)C(Br)[C@@H]1OC(C)=O (stereo partly shown)")
3.71
>>> reported_measurement("CC(=O)[C@H]1CC2=C(C(=O)c3ccccc3C2=O)[C@H](O[C@H]2C[C@H](NC(=O)C(F)(F)F)[C@H](Br)[C@H](C)O2)O1")
0.61

# per-item lookup of log10 of IC50; items listed below
1. CC(=O)C1CC2=C(C(=O)c3ccccc3C2=O)C(OCC2CCCNC2)O1 (mixture of isomers) [BCH2061, hydrochloride salt]
2. COC1OC(C(=O)Nc2ccccc2)=CC2=C1C(=O)c1ccccc1C2=O (stereo not shown)

Solution:
[1.73, 2.29]

###

test system: SKOV3 (Ovarian adenocarcinoma); assay: In vitro cytotoxicity, microculture tetrazolium (MTT) assay, SKOV3; format: cell-based, Human; details: Homo sapiens, SK-OV-3; SKOV3 ovarian adenocarcinoma; 48 h with compound, further 48 h, MTT; Table 1
Exercise: state measured IC50 for each of the compounds provided.
Numbers only, in µM.

>>> reported_measurement("CC(=O)[C@@H]1CC2=C(C(=O)c3ccccc3C2=O)[C@@H](O[C@H]2C[C@H](NC(=O)C(F)(F)F)[C@H](I)[C@H](C)O2)O1")
0.0042

Hey, quick one: what's IC50 for each of these?
1. CC(=O)[C@H]1CC2=C(C(=O)c3ccccc3C2=O)[C@H](O[C@@H]2O[C@@H](C)[C@@H](O)[C@@H](O)[C@H]2I)O1
2. CC(=O)O[C@H]1[C@@H](I)[C@H](O[C@@H]2O[C@@H](C(C)=O)CC3=C2C(=O)c2ccccc2C3=O)O[C@@H](C)[C@H]1OC(C)=O
3. CC[C@H]1CC2=C(C(=O)c3ccccc3C2=O)[C@H](O[C@H]2C[C@H](NC(=O)C(F)(F)F)[C@H](O)[C@H](C)O2)O1

Solution:
21.5
0.0122
11.2

###

test system: HT 29 (Colon adenocarcinoma); assay: In vitro cytotoxicity, microculture tetrazolium (MTT) assay, HT29; format: cell-based, Human; details: Homo sapiens, HT-29, 48 h with compound, further 48 h, Table 1
Please go through the items and note down their log10(IC50).
Recorded IC50 (log10, nM)

Batch request: log10(IC50) per item, same order as input.
1. CO[C@@H]1O[C@@H](C(=O)Nc2ccccc2)CC2=C1C(=O)c1ccccc1C2=O (relative stereo)
2. CC(=O)C1CC2=C(C(=O)c3ccccc3C2=O)C(OCC2CCCN(C(=O)OC(C)(C)C)C2)O1 (mixture of isomers)
3. COC(=O)[C@]1(C)CC2=C(C(=O)c3ccccc3C2=O)[C@@H](O[C@H]2C[C@H](NC(=O)C(F)(F)F)[C@H](O)[C@H](C)O2)O1
4. C=CCC1CC2=C(C(=O)c3ccccc3C2=O)C(OC2CC(NC(=O)C(F)(F)F)C(O)C(C)O2)O1 (stereo not drawn)
5. CC[C@H]1CC2=C(C(=O)c3ccccc3C2=O)[C@H](NC(C)=O)O1 (relative stereo)
6. CC(=O)[C@@H]1CC2=C(C(=O)c3ccccc3C2=O)[C@@H](O[C@H]2C[C@H](NC(=O)C(F)(F)F)[C@H](I)[C@H](C)O2)O1
7. CC(C)OC(=O)[C@H]1CC2=C(C(=O)c3ccccc3C2=O)[C@H](O[C@H]2C[C@H](NC(=O)C(F)(F)F)[C@H](O)[C@H](C)O2)O1
8. COC(=O)[C@H](CC(C)C)NC(=O)[C@H](CO[C@H]1O[C@H](C(C)=O)CC2=C1C(=O)c1ccccc1C2=O)NC(=O)OC(C)(C)C

Solution:
[3.28, 2.41, 3.53, 2.49, 4.19, 1.52, 2.53, 1.56]

Exercise: Quick one: log10(IC50) for CO[C@@H]1O[C@@H](C(=O)O)CC2=C1C(=O)c1ccccc1C2=O (relative stereo) ?
Solution: 3.05
